pIC50 for assorted molecules
Tested on: MDA-MB-435s cells (human melanoma cells)
Test: MDA-MB-435s cell proliferation inhibitory assay (CellTiter-Glo)
Assay type: cell-based
Conditions: Homo sapiens, MDA-MB-435S, 72 h, read-out: Proliferation inhibition IC50
pIC50: −log10 of the molar value.
property_name: pIC50

{"molecule": "CC[C@@]1(O)C(=O)OCc2c1cc1n(c2=O)Cc2c-1nc1cc(F)c(C)cc1c2[C@@H]1CCCN1", "quantitative_result": 7.45}
{"molecule": "CC[C@@]1(O)C(=O)OCc2c1cc1n(c2=O)Cc2c-1nc1ccc(C(F)F)cc1c2[C@@H](C)N [Example 32b]", "quantitative_result": 8.73}
{"molecule": "CC[C@@]1(O)C(=O)OCc2c1cc1n(c2=O)Cc2cc3ccccc3nc2-1", "quantitative_result": 7.99}
{"molecule": "CC[C@@]1(O)C(=O)OCc2c1cc1n(c2=O)Cc2c-1nc1cc(F)c(C)cc1c2[C@H](C)NC(=O)C1(O)CC1", "quantitative_result": 8.09}
{"molecule": "CC[C@@]1(O)C(=O)OCc2c1cc1n(c2=O)Cc2c-1nc1cc(F)c(C(F)(F)F)cc1c2[C@@H](C)N [Example 34b]", "quantitative_result": 8.55}
{"molecule": "CC[C@@]1(O)C(=O)OCc2c1cc1n(c2=O)Cc2c-1nc1cc(F)c(C)cc1c2[C@H](C)NCCO", "quantitative_result": 7.99}
{"molecule": "CC[C@@]1(O)C(=O)OCc2c1cc1n(c2=O)Cc2c-1nc1cc(F)c(C)cc1c2[C@H](C)O [Example 12c]", "quantitative_result": 9.15}

Value source: patent US20240376120A1
